B1: NET1 (parent)
chain: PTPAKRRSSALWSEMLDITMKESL

Variants of: B1
Experiment: protein stability index of a GFP-peptide fusion (GPS, HEK-293T) (PSI 1-6); higher = more stable;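 note: lentivirally expressed fusions sorted by FACS into six bins by GFP to DsRed ratio, PSI derived from sequencing read proportions per bin multiplied by bin number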
Conditions: c terminus: a fixed tail appended
Measured protein stability index determines class: bottom range: < 2; center range: ≥ 2 and < 3; top range: ≥ 3

Prompt line: Just checking, what class would you give `PTPAKRRSSALWSEMLDITMKEFL` here?
Response line: bottom range

Prompt line: Just checking, what class would you give `PTPAKRRSSALWSEMLDITMKFSL` here?
Response line: top range

Prompt line: Just checking, what class would you give `PQPAKRRSSALWSEMLDITMKESL` here?
Response line: center range

Prompt line: Just checking, what class would you give `PTPAKRRSSALWSEMLDITPKESL` here?
Response line: top range

Prompt line: Just checking, what class would you give `PTPAKRRSSALWSEMLDGTMKESL` here?
Response line: top range

Prompt line: Just checking, what class would you give `PTPAKRRSSALWSEMYDITMKESL` here?
Response line: center range

Prompt line: Just checking, what class would you give `PTPAKRRSSALWSEMLDITMKASL` here?
Response line: bottom range

Prompt line: Just checking, what class would you give `PTPAKRRSSAGWSEMLDITMKESL` here?
Response line: top range

Prompt line: Just checking, what class would you give `PTPAKRRSSALWSEMLDITMKHSL` here?
Response line: bottom range

Prompt line: Just checking, what class would you give `PTPAKRRSQALWSEMLDITMKESL` here?
Response line: center range

Prompt line: Just checking, what class would you give `PTWAKRRSSALWSEMLDITMKESL` here?
Response line: top range

Prompt line: Just checking, what class would you give `PTPAKRRSSANWSEMLDITMKESL` here?
Response line: top range

Prompt line: Just checking, what class would you give `PTPAKRRSSALWSEMLDITMVESL` here?
Response line: center range

Prompt line: Just checking, what class would you give `PTPAKRRSSALWSEMLDITMKEVL` here?
Response line: bottom range

Prompt line: Just checking, what class would you give `PTPAKRRSSALWSEMLDITMKESQ` here?
Response line: bottom range

Prompt line: Just checking, what class would you give `PTPAKRRSSALWSEMLDITMKESE` here?
Response line: bottom range

Prompt line: Just checking, what class would you give `PTPAKRRSSALYSEMLDITMKESL` here?
Response line: center range

Prompt line: Just checking, what class would you give `PTPAKRRSSALWGEMLDITMKESL` here?
Response line: center range

Prompt line: Just checking, what class would you give `PTPAKRRSSALWSEMLDNTMKESL` here?
Response line: center range

Prompt line: Just checking, what class would you give `PTPLKRRSSALWSEMLDITMKESL` here?
Response line: bottom range

Prompt line: Just checking, what class would you give `PTPAKMRSSALWSEMLDITMKESL` here?
Response line: center range

Prompt line: Just checking, what class would you give `PTPAKRRSSALWSEMLDITMKSSL` here?
Response line: center range

Prompt line: Just checking, what class would you give `PTPAKRRSSALWDEMLDITMKESL` here?
Response line: top range

Prompt line: Just checking, what class would you give `PTPAIRRSSALWSEMLDITMKESL` here?
Response line: center range

Prompt line: Just checking, what class would you give `PTPAKRWSSALWSEMLDITMKESL` here?
Response line: center range

Prompt line: Just checking, what class would you give `PTPAKRRSSAVWSEMLDITMKESL` here?
Response line: top range

Prompt line: Just checking, what class would you give `PTPAKRRSGALWSEMLDITMKESL` here?
Response line: center range

Prompt line: Just checking, what class would you give `PTPARRRSSALWSEMLDITMKESL` here?
Response line: center range

Prompt line: Just checking, what class would you give `PTPAKRRSSGLWSEMLDITMKESL` here?
Response line: top range

Prompt line: Just checking, what class would you give `PTPAKRRSSALWSEMLDITMKEWL` here?
Response line: top range

Prompt line: Just checking, what class would you give `PTPAKVRSSALWSEMLDITMKESL` here?
Response line: bottom range

Prompt line: Just checking, what class would you give `PTPAKRRSSALWSEMLDDTMKESL` here?
Response line: top range

Prompt line: Just checking, what class would you give `PTPAKRYSSALWSEMLDITMKESL` here?
Response line: center range

Prompt line: Just checking, what class would you give `PTPAKRMSSALWSEMLDITMKESL` here?
Response line: center range

Prompt line: Just checking, what class would you give `PTPAKRRSSALWSEMLDITMKELL` here?
Response line: center range

Prompt line: Just checking, what class would you give `PTPAKRRSSALWSECLDITMKESL` here?
Response line: center range

Prompt line: Just checking, what class would you give `PMPAKRRSSALWSEMLDITMKESL` here?
Response line: center range

Prompt line: Just checking, what class would you give `PTPAKRRSSALWSEMLDITMKNSL` here?
Response line: center range

Prompt line: Just checking, what class would you give `PTPAKRRSSALPSEMLDITMKESL` here?
Response line: top range

Prompt line: Just checking, what class would you give `PTEAKRRSSALWSEMLDITMKESL` here?
Response line: center range

Prompt line: Just checking, what class would you give `PTPAKRRSSALWSEMLDSTMKESL` here?
Response line: center range
